Tested on: MCF10A
Method: percent viability (nuclei count relative to siNT); higher = more viable cells
Recorded Conditions: 20 nM; 72 h

| Monomer Sequence | percent viability / % |
| --- | --- |
| AUGGGUGAUGGGUGUGGUGU [hsa-miR-4701-3p] | 13.3 |
| ACCGUCUCUUCUGUUCCCCAG [hsa-miR-6827-3p] | 64.6 |
| UGAGUCAGCAACAUAUCCCAUG [hsa-miR-5702] | 86.4 |
| UAGCAGCACAUCAUGGUUUACA [hsa-miR-15b-5p] | 26.5 |
| ACUGGCAGAACACUGAAGCAGC [hsa-miR-6868-5p] | 26.9 |
| GGAGAUGGAGGUUGCAGUG [hsa-miR-1273f] | 62.9 |
| UAACACUGUCUGGUAACGAUGU [hsa-miR-200a-3p] | 75.6 |
| UAAAGUGGCAGAGUAUAGACAC [hsa-miR-4796-3p] | 75.7 |
| CAACUAGACUGUGAGCUUCUAG [hsa-miR-708-3p] | 199 |
| UCUGGGCACAGGCGGAUGGACAGG [hsa-miR-5189] | 34.5 |
| CCUCACCCAGCUCUCUGGCCCUCU [hsa-miR-6862-3p] | 72 |

----------
Tested on: MCF10A
Method: 5+ nucleoli phenotype percent effect (relative to siNT 0% and siKIF11 100%); higher = more cells with five or more nucleoli
Recorded Conditions: 20 nM; 72 h

| Monomer Sequence | 5+ nucleoli phenotype percent effect, % |
| --- | --- |
| CCUGGACACCGCUCAGCCGGCCG [hsa-miR-4638-3p] | 8.98 |
| AACAUUCAACGCUGUCGGUGAGU [hsa-miR-181a-5p] | 0.638 |
| CCUCUUCCCCUUGUCUCUCCAG [hsa-miR-1236-3p] | 14.8 |
| UGGAAUGUAAGGAAGUGUGUGG [hsa-miR-206] | -23.7 |
| UGGGGGCUGGGAUGGGCCAUGGU [hsa-miR-6848-5p] | -4.7 |
| UGCCCUGAGACUUUUGCUC [hsa-miR-7976] | -8.65 |
| GGUAUCCGUUUGGGGAUGGU [hsa-miR-3713] | -27.6 |
| AGCAGGUGCGGGGCGGCG [hsa-miR-3665] | -20.8 |
| UUCCCUUUGUCAUCCUAUGCCU [hsa-miR-204-5p] | 46 |
| GGGGGGGGGGGGGGGGGGCCG [hsa-miR-1234-5p] | 65.1 |
| CAUGCCUUGAGUGUAGGACCGU [hsa-miR-532-5p] | -20.1 |
| CAAAAACUGCAUUACUUUUGC [hsa-miR-548j-3p] | 32.5 |
| GACAGAGUGCCACUUACUGAA [hsa-miR-4797-5p] | -25.1 |
| CCUCUAAAGGGAAGCGCUUUCU [hsa-miR-520f-5p] | 57.3 |
| CGGGACUGUAGAGGGCAUGAGC [hsa-miR-8052] | 28.9 |
| CACUGUGGGUACAUGCU [hsa-miR-4318] | -33 |
| UGGGUUUACGUUGGGAGAACU [hsa-miR-629-5p] | -19.1 |
| AUCACAUUGCCAGGGAUUUCC [hsa-miR-23a-3p] | -6.74 |
| AUCUGACCUGAUGAAGGU [hsa-miR-4256] | 5.64 |
| UCCCCUGCUCCCUUGUUCCCCAG [hsa-miR-6810-3p] | 4.97 |
| GACCGAGAGGGCCUCGGCUGU [hsa-miR-4523] | 18.2 |
| GUAGAGGAGAUGGCGCAGGG [hsa-miR-877-5p] | 10.3 |
| UAGGUAGUUUCCUGUUGUUGGG [hsa-miR-196b-5p] | 54.4 |
| UCAGCUCCUCUCUACCCACAG [hsa-miR-6736-3p] | -12.2 |

Measured values drawn from the supplement of paper PMC10899765 for this set.
